So I've got a bunch of molecules here, and I need their DPPH assay IC50 values.
Assay: DPPH radical scavenging antioxidant assay
Type: biochemical
Settings: Table 1; mean ± SD, n = 3; 517 nm after 20 min
Number only, in µg/mL; omit the unit.

Fill in: DPPH assay IC50 of O=C1Oc2cc([N+](=O)[O-])ccc2N/C1=C\C(=O)c1ccc(Cl)cc1 [Compound 20y] is ___ 19.8

Fill in: DPPH assay IC50 of Cc1ccc(C(=O)/C=C2\Nc3cc(C)cc(Br)c3OC2=O)cc1 [Compound 20q] is ___ 36.2

Fill in: DPPH assay IC50 of Cc1cc(Br)c2c(c1)N/C(=C\C(=O)c1ccccc1)C(=O)O2 [Compound 20m] is ___ 24.4

Fill in: DPPH assay IC50 of O=C1Oc2ccc([N+](=O)[O-])cc2N/C1=C\C(=O)c1ccccc1 [Compound 20t] is ___ 4.74

Fill in: DPPH assay IC50 of O=C1Oc2ccccc2N/C1=C\C(=O)c1ccccc1 [Compound 20a] is ___ 10.2

Fill in: DPPH assay IC50 of Cc1cc(Br)c2c(c1)N/C(=C\C(=O)c1ccc(Cl)cc1Cl)C(=O)O2 [Compound 20o] is ___ 22.5

Fill in: DPPH assay IC50 of Cc1ccc2c(c1)N/C(=C\C(=O)c1ccc(F)cc1)C(=O)O2 [Compound 20j] is ___ 34.4

Fill in: DPPH assay IC50 of O=C1O[C@H]([C@@H](O)CO)C(O)=C1O [Ascorbic acid, reference compound] is ___ 4.57

Fill in: DPPH assay IC50 of O=C1Oc2ccc([N+](=O)[O-])cc2N/C1=C\C(=O)c1ccc(F)cc1 [Compound 20u] is ___ 32.1

Fill in: DPPH assay IC50 of COc1ccc(C(=O)/C=C2\Nc3ccccc3OC2=O)cc1 [Compound 20b] is ___ 6.89

Fill in: DPPH assay IC50 of O=C1Oc2cc([N+](=O)[O-])ccc2N/C1=C\C(=O)c1ccccc1 [Compound 20w] is ___ 12.5

Fill in: DPPH assay IC50 of COc1ccc(C(=O)/C=C2\Nc3cc(C)ccc3OC2=O)cc1 [Compound 20l] is ___ 43.8

Fill in: DPPH assay IC50 of COc1ccc(C(=O)/C=C2\Nc3cc(Cl)ccc3OC2=O)cc1 [Compound 20i] is ___ 34.9

Fill in: DPPH assay IC50 of Cc1ccc2c(c1)N/C(=C\C(=O)c1ccc([N+](=O)[O-])cc1)C(=O)O2 [Compound 20r] is ___ 12.2

Fill in: DPPH assay IC50 of Cc1ccc2c(c1)N/C(=C\C(=O)c1ccc(Cl)cc1Cl)C(=O)O2 [Compound 20k] is ___ 43.6

Fill in: DPPH assay IC50 of O=C1Oc2ccc(Cl)cc2N/C1=C\C(=O)c1ccc(F)cc1 [Compound 20d] is ___ 45.2

Fill in: DPPH assay IC50 of O=C1Oc2cc([N+](=O)[O-])ccc2N/C1=C\C(=O)c1ccc(Br)cc1 [Compound 20aa] is ___ 28.4

Fill in: DPPH assay IC50 of O=C1Oc2ccc(Cl)cc2N/C1=C\C(=O)c1ccccc1 [Compound 20c] is ___ 28.8

Fill in: DPPH assay IC50 of COc1ccc(C(=O)/C=C2\Nc3cc([N+](=O)[O-])ccc3OC2=O)cc1 [Compound 20v] is ___ 43.6

Fill in: DPPH assay IC50 of Cc1cc(Br)c2c(c1)N/C(=C\C(=O)c1ccc(Br)cc1)C(=O)O2 [Compound 20p] is ___ 44.3

Fill in: DPPH assay IC50 of O=C1Oc2ccc(Cl)cc2N/C1=C\C(=O)c1ccc(Cl)cc1 [Compound 20e] is ___ 92.2

Fill in: DPPH assay IC50 of Cc1ccc(C(=O)/C=C2\Nc3cc(Cl)ccc3OC2=O)cc1 [Compound 20h] is ___ 44.8

Fill in: DPPH assay IC50 of O=C1Oc2ccc(Cl)cc2N/C1=C\C(=O)c1ccc(Br)cc1 [Compound 20g] is ___ 61.2

Fill in: DPPH assay IC50 of Cc1cc(Br)c2c(c1)N/C(=C\C(=O)c1ccc(F)cc1)C(=O)O2 [Compound 20n] is ___ 16.9

Fill in: DPPH assay IC50 of O=C1Oc2ccc(Cl)cc2N/C1=C\C(=O)c1ccc(Cl)cc1Cl [Compound 20f] is ___ 56.6

Fill in: DPPH assay IC50 of COc1ccc(C(=O)/C=C2\Nc3ccc([N+](=O)[O-])cc3OC2=O)cc1 [Compound 20ab] is ___ 43.6

Fill in: DPPH assay IC50 of O=C1Oc2cc([N+](=O)[O-])ccc2N/C1=C\C(=O)c1ccc(F)cc1 [Compound 20x] is ___ 10.2

Fill in: DPPH assay IC50 of O=C1Oc2cc([N+](=O)[O-])ccc2N/C1=C\C(=O)c1ccc(Cl)cc1Cl [Compound 20z] is ___ 28.8

Fill in: DPPH assay IC50 of O=C1Oc2ccccc2N/C1=C\C(=O)c1ccc([N+](=O)[O-])cc1 [Compound 20s] is ___ 21.3

----------
Experiment: Ferric reducing antioxidant power (FRAP) assay
Type: biochemical
Details: in words; BHT C0.5FRAP = 546.0 ± 13.6 μM
Protocol: The FRAP reagent was prepared by the addition of freshly prepared 20.0 mM FeCl3.6H2O solution, 10.0 mM of […] (TPTZ) solution and 300 mM sodium acetate buffer (pH 3.6) in a ratio of 1:1:10 (v/v/v). After that, Sample (our synthesized 2-oxo-2-phenylethylidenes-linked 2-oxo-benzo[1,4]oxazines 20a-ab) was added to 3 ml of freshly prepared FRAP reagent and this reaction mixture was incubated at 37°C temperature for 30 min. and the absorbance was measured at 593 nm. […]
reported.endpoint: FRAP potency compared with standard reference BHT

O=C1Oc2ccc([N+](=O)[O-])cc2N/C1=C\C(=O)c1ccccc1 [Compound 20t] | less active than BHT
O=C1Oc2cc([N+](=O)[O-])ccc2N/C1=C\C(=O)c1ccccc1 [Compound 20w] | less active than BHT
O=C1Oc2ccccc2N/C1=C\C(=O)c1ccccc1 [Compound 20a] | less active than BHT

----------
Assay: Ferric reducing antioxidant power (FRAP) assay
Format: biochemical
Settings: mean ± SD, n = 3; concentration equivalent to FeSO4 at 0.5 mmol/L; 37°C, 30 min, 593 nm
So I've got a bunch of molecules here, and I need their FRAP assay (C0.5FRAP) values.
Number only, in µM; omit the unit.

Fill in: FRAP assay (C0.5FRAP) of O=C1Oc2ccccc2N/C1=C\C(=O)c1ccccc1 [Compound 20a] is ___ 611.5

Fill in: FRAP assay (C0.5FRAP) of O=C1Oc2cc([N+](=O)[O-])ccc2N/C1=C\C(=O)c1ccc(Cl)cc1Cl [Compound 20z] is ___ 437.6

Fill in: FRAP assay (C0.5FRAP) of Cc1cc(Br)c2c(c1)N/C(=C\C(=O)c1ccc(Cl)cc1Cl)C(=O)O2 [Compound 20o] is ___ 641.6

Fill in: FRAP assay (C0.5FRAP) of O=C1Oc2ccc(Cl)cc2N/C1=C\C(=O)c1ccccc1 [Compound 20c] is ___ 467.8
